Test system: HCV Subgenomic Replicon
measurementProtocol: HCV-Huh-5-2 replicon cell assay (luciferase)
Assay type: cell-based, Hepatitis C virus
setupConditions: Hepatitis C virus; HCV subgenomic replicon in Huh-5-2 cells, 72 hours, luciferase; read-out: EC50 (concentration required to inhibit luciferase activity in the replicon system by 50%)
Definition: the class of an entry is the range in one (below 4 µM), two (4 µM to below 10 µM), three (10 µM or more) that contains its EC50.

Task: Which class holds O=c1oc2ccc(Br)cc2cc1CSc1nc2cccnc2[nH]1 [Compound 16c] ?
Output: two

Task: Which class holds O=c1oc2ccccc2cc1CSc1nc2ccccc2[nH]1 ?
Output: three

Task: Which class holds O=c1oc2ccccc2cc1CSc1nc2cnc(Cl)nc2[nH]1 [Compound 16d] ?
Output: one

Task: Which class holds Cc1cc2nc(SCc3cc4ccccc4oc3=O)[nH]c2cc1C ?
Output: three

Task: Which class holds CC(=O)OCC1OC(n2c(SCc3cc4cc(Br)ccc4oc3=O)nc3cc(F)ccc32)C(OC(C)=O)C(OC(C)=O)C1OC(C)=O (stereo not shown) ?
Output: one

Task: Which class holds CC(=O)OCC1OC(n2c(SCc3cc4ccccc4oc3=O)nc3cc(Cl)c(Cl)cc32)C(OC(C)=O)C(OC(C)=O)C1OC(C)=O (stereo not shown) ?
Output: one

Task: Which class holds CC(=O)OCC1OC(n2c(SCc3cc4ccccc4oc3=O)nc3ccccc32)C(OC(C)=O)C(OC(C)=O)C1OC(C)=O (stereo not shown) ?
Output: three

Task: Which class holds CC(=O)OCC1OC(n2c(SCc3cc4ccccc4oc3=O)nc3cc(F)ccc32)C(OC(C)=O)C(OC(C)=O)C1OC(C)=O (stereo not shown) ?
Output: one

Task: Which class holds O=C(c1ccccc1)c1ccc2[nH]c(SCc3cc4ccccc4oc3=O)nc2c1 ?
Output: two

Task: Which class holds COc1cccc2cc(CSc3nc4cnc(Cl)nc4[nH]3)c(=O)oc12 [Compound 16e] ?
Output: three

Task: Which class holds O=c1oc2ccccc2cc1CSc1nc2ccccc2o1 [Compound 19a] ?
Output: three

Task: Which class holds O=c1oc2ccccc2cc1CSc1nc2cc(Cl)c(Cl)cc2[nH]1 ?
Output: three

Task: Which class holds O=c1oc2ccc(Br)cc2cc1CSc1nc2cc(Cl)c(Cl)cc2[nH]1 ?
Output: one

Task: Which class holds O=c1oc2ccc(Br)cc2cc1CSc1nc2ccccc2o1 [Compound 19c] ?
Output: three

Task: Which class holds O=c1oc2ccccc2cc1CSc1nc2cc(F)ccc2[nH]1 ?
Output: three

Task: Which class holds CC(=O)OCC1OC(n2c(SCc3cc4cc(Br)ccc4oc3=O)nc3ccccc32)C(OC(C)=O)C(OC(C)=O)C1OC(C)=O (stereo not shown) ?
Output: two

Task: Which class holds COc1cccc2cc(CSc3nc4cc(Cl)c(Cl)cc4[nH]3)c(=O)oc12 ?
Output: one

Task: Which class holds O=c1oc2ccc(Br)cc2cc1CSc1nc2cc(F)ccc2[nH]1 ?
Output: one

Task: Which class holds COc1cccc2cc(CSc3nc4cc(F)ccc4[nH]3)c(=O)oc12 ?
Output: three

* * *

Tested on: HCV Subgenomic Replicon
measurementProtocol: HCV-Huh-5-2 replicon cell assay (luciferase)
Type: cell-based, Hepatitis C virus
setupConditions: Hepatitis C virus; HCV subgenomic replicon in Huh-5-2 cells, 72 hours, luciferase; read-out: EC50 (concentration required to inhibit luciferase activity in the replicon system by 50%)
Kindly supply the reported EC50 values for the records listed here.
Dear colleague, please return just the value in µM, with no unit written.

Task: Consider the molecule Cc1cccc2cc(CSc3nc4ccccc4[nH]3)c(=O)oc12 and give its recorded EC50.
Output: 9.89

Task: Consider the molecule O=c1oc2ccc(Br)cc2cc1CSc1nc2ccccc2[nH]1 and give its recorded EC50.
Output: 3.98

Task: Consider the molecule CC(=O)OCC1OC(n2c(SCc3cc4cc(Br)ccc4oc3=O)nc3ccccc32)CC(OC(C)=O)C1OC(C)=O (stereo not drawn) [Compound 22c] and give its recorded EC50.
Output: 4.08
